- TEST_METHOD_NOTES: solvent given as SMILES
- CONDITION_NOTES: in c1ccc2c(c1)c1ccccc1n2-c1ccc(-c2ccc(-n3c4ccccc4c4ccccc43)cc2)cc1
MEASURE: emission maximum (nm)
Please respond with the number in nm and leave the unit unwritten.

O=P1(c2ccccc2)c2cc(N3c4ccccc4Oc4ccccc43)ccc2-c2ccc(N3c4ccccc4Oc4ccccc43)cc21	550

Look up emission maximum: O=P1(c2ccccc2)c2cc(N3c4ccccc4Sc4ccccc43)ccc2-c2ccc(N3c4ccccc4Sc4ccccc43)cc21
554

Can you look up the measured emission maximum of COc1ccc2c(c1)c1cc(OC)ccc1n2-c1ccc2c(c1)-c1cc(-n3c4ccc(OC)cc4c4cc(OC)ccc43)ccc1P2(=O)c1ccccc1 for me?
490

Which emission maximum reading was recorded for the compound CCCCCCN1C(=O)C(c2ccc(-c3ccc(-n4c5ccccc5c5ccccc54)cc3)cc2)=C(c2ccc(-c3ccc(-n4c5ccccc5c5ccccc54)cc3)cc2)C1=O ?
580

###

- TEST_METHOD_NOTES: solvent given as SMILES
- CONDITION_NOTES: in ClCCl
Each entry falls in a class defined on emission maximum; the bands are A: < 500 nm; B: ≥ 500 nm and < 600 nm; C: ≥ 600 nm

Cc1nc(-c2cc(C(F)(F)F)ccc2O)n2c1CCCC2	A
CCN(CC)c1ccc2cc(-c3nc4ccccc4n3-c3ccccc3)c(=O)oc2c1	A
COc1ccc(-c2ncccn2)cc1	A

Which emission maximum band matches O=C1c2ccccc2-c2c(-c3cc(Br)ccc3O)[nH]c(=O)n21 ?
A

# bin lookup: classify COc1ccc2c(c1)c1c(c3cc(OC)ccc32)=[N+]2C(=C(c3c(C)cc(C)cc3C)c3cc4c5cc(OC)ccc5c5ccc(OC)cc5c4n3[B-]2(F)F)C=1 by its emission maximum
C

Please report the category associated with Cc1ccccc1-c1c2ccc(=[N+]3CCN(C(=O)OC(C)(C)C)CC3)cc-2oc2cc(N3CCN(C(=O)OC(C)(C)C)CC3)ccc12 , nothing else.
B

Band for CCN(CC)c1ccc(/C=C/C(=O)c2c(O)cc(C)oc2=O)cc1 ?
B

For this compound, which bin applies? CC1=[N+]2C(=c3c4c5ccccc5cc5cccc(c6cc(C)n(c36)[B-]2(F)F)c54)C=C1
C

Which of the defined bands does the recorded emission maximum of CCCCCCCCOc1cc(/C=C/c2cc(OCCCCCCCC)c(/C=C/c3cc(OCCCCCCCC)c(Br)cc3OCCCCCCCC)cc2OCCCCCCCC)c(OCCCCCCCC)cc1Br sit within?
A

Which of the defined bands does the recorded emission maximum of F[B-]1(F)n2c(c3ccccc3c2-c2ccccc2)C(c2ccccc2)=C2c3ccccc3C(c3ccccc3)=[N+]21 sit within?
C

Categorize the following entry: CCCCN(CCCC)c1ccc(C#Cc2cc(C#Cc3ccc(C#N)cc3)c(C#Cc3ccc(N(CCCC)CCCC)cc3)cc2C#Cc2ccc(C#N)cc2)cc1
B

###

- TEST_METHOD_NOTES: solvent given as SMILES
- CONDITION_NOTES: in O=P(c1ccccc1)(c1ccccc1)c1ccccc1Oc1ccccc1P(=O)(c1ccccc1)c1ccccc1
// values below are reported emission maximum

c1ccc(-c2nnc(-c3cc(-c4nnc(-c5ccccc5)o4)c(-n4c5ccccc5c5ccccc54)cc3-n3c4ccccc4c4ccccc43)o2)cc1	459 nm
c1ccc(-c2nc(-c3ccccc3)nc(-c3cc(-n4c5ccccc5c5ncccc54)c(-n4c5ccccc5c5ccccc54)c(-n4c5ccccc5c5ncccc54)c3)n2)cc1	455.49 nm
c1ccc(-c2nc(-c3ccccc3)nc(-c3ccc(-n4c5ccccc5c5cc(-n6c7ccccc7c7ccccc76)ccc54)cc3)n2)cc1	475 nm
c1ccc(-c2nc(-c3ccccc3)nc(-c3ccccc3-n3c4ccccc4c4c5oc6ccccc6c5ccc43)n2)cc1	456.95 nm
N#Cc1cc(C#N)cc(-n2c3ccccc3c3cc(-c4ccc5c(c4)c4ccccc4n5-c4cc(C#N)cc(C#N)c4)ccc32)c1	470 nm

Entry under review: c1ccc(-c2nc(-c3ccccc3)nc(-c3ccc(-n4c5ccccc5c5cc6c(cc54)C(c4ccccc4)(c4ccccc4)c4ccccc4-6)cc3)n2)cc1 . Reported emission maximum?
471 nm
